Experiment: qHTS for Inhibitors of human tyrosyl-DNA phosphodiesterase 1 (TDP1): qHTS in cells in presence of CPT; note: nearly all actives have a fitted effect of over 55% in size
Settings: chicken DT40 Tdp1-/-;hTDP1 cells + 20 nM CPT, ATP luminescence, 48 h; series mostly up to 46.2 µM
Hit rate of the full screen: of about 420,000 compounds, about 50,000 (12%) were called active. Not shown: some 26% with an inconclusive outcome. Calls come from the whole dose curve; as a rule, active = well fitted inhibition curve with a large enough effect; inconclusive = small, poorly fitted or top-dose-only effect; inactive = flat fitted curve, though single readings scatter. Only a selection was taken, and actives are over-represented in it overall.
Parameter call: string, one of active, inactive

Consider the following illustrative entries.
INSERT INTO measurements (compound, class_assignment) VALUES
  ('Cc1cc(C)n(-c2ccc3nncn3n2)n1', 'inactive'),
  ('O=C(O)c1ccc([N+](=O)[O-])cc1Sc1ccsc1', 'inactive'),
  ('Cc1cc(C)nc(SCc2cn3c(C)cc(C)nc3n2)n1', 'inactive');

Problem: Name the outcome recorded for O=C1CC[C@@H]2CC3(C[C@@H]4CCN1[C@H]24)Nc1cc([N+](=O)[O-])ccc1NC3=NC1CCCCC1 (some centres not stated) in the assay.
Result: inactive

Problem: Another compound to check: CCc1noc(C)c1C(=O)N1CCN(S(=O)(=O)c2cccc(C(F)(F)F)c2)CC1
Result: inactive

Problem: Cc1cc(C)cc(-n2ccnc2SCC(=O)Nc2nc3ccccc3s2)c1 ?
Result: active

Problem: Query CC(OC(=O)c1ccc2ccccc2n1)C(=O)c1ccccc1 (configuration not stated) next
Result: inactive

Problem: For COc1ccc(C2CC(=O)NC(=O)C2)cc1 then?
Result: inactive

Problem: Check Cn1nnnc1SCC(=O)Nc1nc2ccccc2s1 too.
Result: inactive

Problem: Further, for Cc1nnc(NC(=O)CSc2nccn2-c2cccc(C)c2C)s1 ?
Result: active

Problem: Then what about the compound N#CCCN(C(=O)COC(=O)c1ccc(S(=O)(=O)N2CCCCCC2)cc1)c1ccccc1 ?
Result: inactive

Problem: Same thing, different compound: Cc1cccc(CSc2nnc(NC(=O)CSc3nnc(C)s3)s2)c1
Result: inactive

Problem: Proceed to CCCn1c(N)c(N(CCOC)C(=O)C2CCCC2)c(=O)[nH]c1=O
Result: inactive

Problem: Now consider C=Cn1cc[n+](CC(=O)c2ccc(OC)c(OC)c2)c1 .
Result: inactive

Problem: Entry to check: Cc1ccc2sc(NNC(=O)c3ccc4c(c3)OCCO4)nc2c1C
Result: inactive
